SYSTEM_NAME: Serotonin 2 (5-HT2) receptor (Rattus norvegicus, UniProt P30994+P08909+P14842)
PROTOCOL_DESCRIPTION: Inhibitory concentration against [3H]ketanserin binding to 5-hydroxytryptamine 2 receptor expressed in CHO-K1 cells
Type: cell-based
IC50 overview
MEASUREMENT_LABEL: IC50

• CCCN1CCC(c2ccccc2)C1 (stereo not drawn) = > 1000 nM
• CCCN1CCC(c2cccc(OS(=O)(=O)C(F)(F)F)c2)C1 (stereo not drawn) = > 1000 nM
• CCCN1CCC(c2cccnc2)C1 (stereo not drawn) = > 1000 nM
• CS(=O)(=O)c1cccc(C2CCNC2)c1 (stereo not drawn) = > 1000 nM
• CCCN1CCC(c2cccc(O)c2)C1 (stereo not drawn) = > 1000 nM
• CCCN1CCC(c2cccc(S(C)(=O)=O)c2)C1 (stereo not drawn) = > 1000 nM
• CCCN1CCC(C2CCCCC2)C1 (stereo not drawn) = > 1000 nM
• CN1CCC(C2=CN=CCC2)C1 (stereo not drawn) = > 1000 nM

The reported numbers originate from ChEMBL document CHEMBL1159176.
